target: human ether-à-go-go-related gene (hERG) potassium channel (human); experiment: primary screen, population patch clamp on CHO cells stably expressing hERG; higher = less effect of the substance;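 further: peak tail current of the secondary pulse compared with the same well before compound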
Sequence (Q12809 whole entry, looked up): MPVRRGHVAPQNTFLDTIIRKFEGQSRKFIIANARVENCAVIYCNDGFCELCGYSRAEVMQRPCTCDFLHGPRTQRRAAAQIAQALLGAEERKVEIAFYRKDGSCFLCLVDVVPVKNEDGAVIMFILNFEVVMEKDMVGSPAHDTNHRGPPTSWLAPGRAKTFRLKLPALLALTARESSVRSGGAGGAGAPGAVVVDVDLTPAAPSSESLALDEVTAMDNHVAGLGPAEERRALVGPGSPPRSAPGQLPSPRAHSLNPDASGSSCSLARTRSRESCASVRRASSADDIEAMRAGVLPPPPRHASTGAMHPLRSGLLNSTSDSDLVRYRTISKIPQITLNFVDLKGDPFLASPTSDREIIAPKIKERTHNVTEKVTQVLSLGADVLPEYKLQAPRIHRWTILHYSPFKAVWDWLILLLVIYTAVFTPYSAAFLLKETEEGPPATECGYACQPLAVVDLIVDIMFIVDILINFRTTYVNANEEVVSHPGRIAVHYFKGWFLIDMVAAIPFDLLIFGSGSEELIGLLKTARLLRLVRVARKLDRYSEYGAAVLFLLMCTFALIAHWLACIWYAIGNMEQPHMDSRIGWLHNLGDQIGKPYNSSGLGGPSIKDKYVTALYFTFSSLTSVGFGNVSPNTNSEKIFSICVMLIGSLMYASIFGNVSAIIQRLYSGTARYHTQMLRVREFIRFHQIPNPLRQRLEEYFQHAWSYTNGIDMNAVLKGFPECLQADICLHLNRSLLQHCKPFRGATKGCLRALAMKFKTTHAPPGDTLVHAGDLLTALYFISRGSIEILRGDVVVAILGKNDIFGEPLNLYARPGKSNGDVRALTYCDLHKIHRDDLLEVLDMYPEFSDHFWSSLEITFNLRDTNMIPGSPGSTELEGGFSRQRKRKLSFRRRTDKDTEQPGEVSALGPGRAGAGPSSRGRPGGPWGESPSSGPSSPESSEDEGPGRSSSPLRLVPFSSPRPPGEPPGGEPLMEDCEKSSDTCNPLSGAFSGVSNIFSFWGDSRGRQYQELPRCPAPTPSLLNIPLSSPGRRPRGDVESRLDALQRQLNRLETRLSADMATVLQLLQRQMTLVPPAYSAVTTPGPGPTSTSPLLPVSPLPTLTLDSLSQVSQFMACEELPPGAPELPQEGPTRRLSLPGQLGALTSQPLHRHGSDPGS
In all, about 310,000 compounds went through this assay and about 14,000 (4.5%) showed an effect of 50% or more. The effect is printed as a negative number. Shown is part of a subset that was picked to be rich in strong results.
// reported hERG current change (%, negative = inhibition) at 10uM for each item listed
Your answer is read as %, so omit the unit and give the number.

Worked examples follow.
* O=C(Cn1cc(C(=O)C2CCCCC2)c2ccccc21)NCC1CCCO1 (centres unmarked) | -14.8
* Cc1ccc(S(=O)(=O)N(C)c2ccc(C(=O)NCC3(N(C)C)CCCCC3)cc2)cc1 | -65.4
* CCOc1ccc(C2=CSC3=NCCN23)cc1[N+](=O)[O-] | -75.5
* C=CCN1C(=O)c2ccc(C(=O)N3CCN(S(=O)(=O)c4cccc(F)c4)CC3)cc2C1=O | -62.7

Would you mind telling me what hERG current change (%, negative = inhibition) at 10uM value was observed for Cc1cc(C(=O)CS(=O)(=O)c2ccc(Cl)cc2)cc(C)c1O ?
16.6

Same again, this time with O=C(OCn1nnc2ccccc2c1=O)c1cc(-c2ccccc2)nc2ccccc12
6.74

// query: CCOC(=O)c1cc2c(ccn2C)n1Cc1ccccc1C
11.8

Next record, please: Cc1ccc(S(=O)(=O)N(C)/N=C/c2ccc(C(=O)O)cc2)cc1
-7.51

One more compound: CSC1=C(C#N)C(c2ccccc2Cl)C2=C(N1)c1ccccc1C2=O (centres unmarked)
6.44

Okay, and COc1ccccc1NC(=S)NCC1CCCO1 (centres unmarked) ?
8.94

Proceed to Cc1ccc(S(=O)(=O)N(C)c2ccc(C(=O)NCC3CCCO3)cc2)cc1 (centres unmarked)
-16.7

Now give it for CCn1cc(C(=O)O)c(=O)c2cnc(N3CCN(C(=S)Nc4ccccc4Cl)CC3)nc21 too.
-4.66

Recorded values, source paper PMC4336329.
